Kindly supply the reported pIC50 values for the records listed here.
tested on: NALM-6; test: Anti-proliferative activity of compound against human leukemia NALM-6 by standard MTT assay; type: functional, cell-based
pIC50: −log10 of the molar value.

Would you please look over these solved cases?
Q. Write down measured pIC50 (NALM-6) for this compound. CCCCCCCCCCCC[C@@H](O)[C@H]1CC[C@H](CO)O1
A. 4.31

Q. Give pIC50 for OC[C@H]1CC[C@H]([C@@H](O)CO)O1 tested on NALM-6.
A. < 3.60

Q. Report its pIC50 with NALM-6 as the test system: O=S(=O)(CC[C@@H](O)[C@H]1CC[C@H](COCc2ccccc2)O1)c1ccccc1
A. < 3.60

// next item, pIC50 requested
Q. Check NALM-6 data and give pIC50 for C[C@@H](O)[C@H]1CC[C@H](CO)O1 .
A. < 3.60
